- Assay type: in vivo, Balb/c nude mice harboring LoVo xenografts
- measurement-context: 8-day vs single SMI 10 mL/kg/day i.p.
Each item that follows carries a reported AUC0–∞ ratio Multiple/Single in tumors.

molecule	AUC0–∞ ratio Multiple/Single in tumors
CC1(C)CC[C@]2(C(=O)O[C@@H]3O[C@H](CO)[C@@H](O)[C@H](O)[C@H]3O)CC[C@]3(C)C(=CC[C@@H]4[C@@]5(C)CC[C@H](O[C@@H]6O[C@H](C(=O)O)[C@@H](O)[C@H](O)[C@H]6O[C@@H]6O[C@H](CO)[C@@H](O)[C@H](O)[C@H]6O)C(C)(C)[C@@H]5CC[C@]43C)[C@@H]2C1 [Ro, ginsenoside Ro]	0.92
CC(C)=CCC[C@](C)(O[C@@H]1O[C@H](CO[C@@H]2O[C@@H](CO)[C@H](O)[C@H]2O)[C@@H](O)[C@H](O)[C@H]1O)[C@H]1CC[C@]2(C)[C@@H]1[C@H](O)C[C@@H]1[C@@]3(C)CC[C@H](O[C@@H]4O[C@H](CO)[C@@H](O)[C@H](O)[C@H]4O[C@@H]4O[C@H](CO)[C@@H](O)[C@H](O)[C@H]4O)C(C)(C)[C@@H]3CC[C@]12C [Rc]	5.67
CC(C)=CCC[C@](C)(O[C@@H]1O[C@H](CO[C@@H]2O[C@H](CO)[C@@H](O)[C@H](O)[C@H]2O)[C@@H](O)[C@H](O)[C@H]1O)[C@H]1CC[C@]2(C)[C@@H]1[C@H](O)C[C@@H]1[C@@]3(C)CC[C@H](O[C@@H]4O[C@H](CO)[C@@H](O)[C@H](O)[C@H]4O[C@@H]4O[C@H](CO)[C@@H](O)[C@H](O)[C@H]4O)C(C)(C)[C@@H]3CC[C@]12C [Rb1, ginsenoside Rb1]	1.64
